Target: LCK (human)
Assay: Caliper, Mobility shift assay off-chip
Conditions: compound 0.1 µM
Kindly state inhibition for each of the entries shown.
Give your result in % as a bare value.

Query: Any idea what its inhibition is? The compound is "Cn1cc(-c2cnc3ccc4ccc(CS(=O)(=O)CCc5ccccn5)cc4c(=O)c3c2)cn1"
Response: 9.2

Query: Any idea what its inhibition is? The compound is "O=c1c2cc(CS(=O)(=O)NCc3ccccn3)ccc2ccc2ncc(C3CCNCC3)cc12"
Response: 3.3

Query: Any idea what its inhibition is? The compound is "Cn1cc(-c2cnc3ccc4ccc(CS(N)(=O)=O)cc4c(=O)c3c2)cn1"
Response: 2.4

Query: Any idea what its inhibition is? The compound is "CN(c1ccc2ccc3ncc(-c4cnn(C)c4)cc3c(=O)c2c1)S(=O)(=O)NCc1ccccn1"
Response: -3.5

Query: Any idea what its inhibition is? The compound is Cn1cc(-c2cnc3ccc4ccc(CS(=O)(=O)NCC5CCCCN5)cc4c(=O)c3c2)cn1 (configuration not stated)
Response: 18.4

Query: Any idea what its inhibition is? The compound is "Cn1cc(-c2cnc3ccc4ccc(CS(=O)(=O)NC5CCCCC5)cc4c(=O)c3c2)cn1"
Response: 7.3

Query: Any idea what its inhibition is? The compound is "O=C(CCc1ccc2ccc3ncc(C4CCNCC4)cc3c(=O)c2c1)NCc1ccccn1"
Response: -3.4
